Target: Albumin (Bos taurus)
Test: bovine serum albumin binders on microarray, profiling panel, artefact control for SMM control protein annotation, biochemical, small-molecule microarray, Alexa647 label, 635/667 nm fluorescence (AID 1118);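 also: score merges 667 nm emission intensity and signal-to-noise per printed compound spot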
Details: BSA-A647 binding, fluorescence 635 nm, higher = more signal
composite z-score values by entry
Readout Label: composite z-score

Compound: COC(=O)C(CC#Cc1ccc2c(c1)[C@]1(C(=O)N2)[C@H](C(=O)N2CCCCCCC2)[C@H]2C(=O)O[C@H](c3ccccc3)[C@H](c3ccccc3)N2[C@@H]1c1ccc(OCCO)cc1)C(=O)OC
Endpoint Result: 0.844
//
Compound: COc1ccc(CCNC(=O)[C@@H]2c3ccccc3C(=O)N(Cc3cc(F)cc(C(F)(F)F)c3)[C@H]2c2ccc(CO)cc2)cc1
Endpoint Result: -0.0885
//
Compound: CC(C)C[C@@H]1NC(=O)[C@H]2C[C@@H](C(=O)O)[C@@H](c3cccc(OCCO)c3)N2C1=O
Endpoint Result: -0.371
//
Compound: COc1ccc(CCNC(=O)[C@@]2(c3ccc([N+](=O)[O-])cc3)CC(=O)N(C3CCCCC3)[C@@H]2c2ccc(CO)cc2I)cc1
Endpoint Result: -0.127
//
Compound: [N-]=[N+]=Nc1ccccc1C[C@]1(C(N)=O)COC(c2ccc(OCCCO)cc2)=N1
Endpoint Result: 0.66
//
Compound: CC1CC/C=C\[C@H]2OC34C=CCN(C(C)C)C(=O)[C@H]3N(C(C)CO)C(=O)[C@@H]4C2C(=O)O1 (stereo partly drawn)
Endpoint Result: 0.702
//
Compound: COc1ccc([Si](C)(C)[C@@H]2[C@@H](CC(=O)N(CCO)Cc3ccccc3)O[C@]3(C(=O)N(Cc4cccc(I)c4)c4ccccc43)[C@H]2C)cc1
Endpoint Result: -0.783
//
Compound: [N-]=[N+]=NCc1ccccc1[C@H]1OC(c2ccc(OCCCO)cc2)=N[C@@]1(CCS(=O)(=O)c1ccccc1)C(=O)O
Endpoint Result: 0.952
//
Compound: Cc1cccc([C@H]2C[C@H]3C(Br)=C[C@@]2(CO)C(=O)[C@]32CO2)c1
Endpoint Result: -0.155
//
Compound: COc1ccc(C(=O)Nc2ccc(CN3C(=O)[C@@]4(O[C@@H](CC(=O)N(CCO)Cc5ccccc5)[C@H]([Si](C)(C)c5ccc(OC)cc5)[C@H]4C)c4ccccc43)cc2)cc1
Endpoint Result: 0.469
//
Compound: C=C(CCCC)C(=O)CC[C@@H](OC(C)=O)c1ccc(OCCO)cc1
Endpoint Result: -0.267
//
Compound: C=C(COC)/C(=C/C[C@@H](OC(=O)c1ccncc1)c1ccccc1OCCO)c1cnc2ccccc2c1
Endpoint Result: 0.57
//
Compound: O=C(NCCN1CCOCC1)[C@@H]1c2ccccc2C(=O)N(CC23CC4CC(CC(C4)C2)C3)[C@H]1c1ccc(CO)cc1
Endpoint Result: 0.974
//
Compound: C=CCNC(=O)[C@H]1[C@@H]2C(=O)O[C@@H](c3ccccc3)[C@@H](c3ccccc3)N2[C@@H](c2ccc(OCCO)cc2)[C@]12C(=O)N(C(=O)OCCOC)c1ccc(C#CCC(C(=O)OC)C(=O)OC)cc12
Endpoint Result: 0.738
//
Compound: O=C(O)C1=CC[C@H]2C(=O)N(c3ccccc3)C(=O)[C@@H]12
Endpoint Result: 0.342
//
Compound: CCN1C(=O)C2CC(=O)C3C(CN(S(=O)(=O)c4ccc(C)cc4)C3c3ccc(C)cc3)C2C1=O (stereo not drawn)
Endpoint Result: 0.449
//
Compound: Cc1ccc(S(=O)(=O)N2[C@@H](c3ccccc3)C(C(=O)O)=C[C@H]2C(C)(C)C)cc1
Endpoint Result: 1
//
Compound: COc1ccc([Si](C)(C)[C@H]2[C@H](CC(=O)N(CCO)Cc3ccccc3)O[C@@]3(C(=O)N(Cc4cccc(N5CCCCC5=O)c4)c4ccccc43)[C@@H]2C)cc1
Endpoint Result: 0.124
//
Compound: COCCOC(=O)N1C(=O)[C@@]2(c3cc(C#CCNC(N)=O)ccc31)[C@H](c1ccc(O)cc1)N1[C@H](c3ccccc3)[C@H](c3ccccc3)OC(=O)[C@H]1[C@@H]2C(=O)N1CCc2cc(OC)c(OC)cc2C1
Endpoint Result: 0.397
//
Compound: CCCC[C@@H](O)C1=C(C)Cn2c(=O)n(-c3ccccc3)c(=O)n2[C@H]1CO
Endpoint Result: 0.138
//
Compound: CO[C@H]1O[C@H](CO)[C@@H](OC(=O)Nc2cccc(F)c2)[C@H](OC(=O)c2cc3ccccc3[nH]2)[C@H]1OC(=O)c1cc2ccccc2[nH]1
Endpoint Result: 0.467
//
Compound: COC(=O)[C@@]1(Cc2ccc(F)cc2)[C@H]2c3cc(C(=O)N4CCCC4)n(CCSCCO)c3C[C@H]2CN1C(=O)c1ccccc1
Endpoint Result: 0.855
//
Compound: CC(C)N1CC=CC23O[C@@H]4/C=C\CCCOC(=O)C4[C@H]2C(=O)N(C(C)CO)[C@@H]3C1=O (stereo partly drawn)
Endpoint Result: -0.446
//
Compound: CCCCCN1CC=CC23O[C@@H]4/C=C\CCCOC(=O)C4[C@H]2C(=O)N(CCO)[C@@H]3C1=O (stereo partly drawn)
Endpoint Result: 0.73
//
Compound: C[N+](C)(C)CCCC[C@@H]1NC(=O)[C@H]2C[C@@H](C(=O)O)[C@@H](c3ccc(O)cc3)N2C1=O
Endpoint Result: -0.804
//
Compound: COC(=O)[C@@]1(Cc2ccc(OC)cc2)[C@H]2c3cc(C(=O)N(C)C)n(Cc4c(CO)[nH]cc(C)c4=O)c3C[C@H]2CN1C(=O)c1ccccc1
Endpoint Result: 0.302
//
Compound: COC(=O)C(CC#Cc1ccc2c(c1)[C@]1(C(=O)N2)[C@H](C(N)=O)[C@H]2C(=O)O[C@H](c3ccccc3)[C@H](c3ccccc3)N2[C@@H]1c1ccccc1OCCO)C(=O)OC
Endpoint Result: 0.398
//
Compound: COc1ccc(C(O)C2C=CC3C(=O)N(C)C(=O)C3N2Nc2ccccc2)cc1 (stereo not drawn)
Endpoint Result: 0.986
